Data origin: paper PMC7582905

In this section we review reported ∆tR values for a set of compounds.
# Method description: RP-HPLC determination of peptide hydrophobicity
# Type: physicochemical
# Recorded conditions: tR of cyclic analog − tR of parent lipopeptide; RP-HPLC, RP-18, 20–65% acetonitrile over 30 min, 0.1% TFA
# Experimental: The peptides were analyzed by RP-HPLC to determine relative hydrophobicity vs. retention time of each compound. In general, more hydrophobic lipopeptides will elute later than hydrophilic ones. […] To determine peptide hydrophobicity, a Waters Alliance e2695 system with a Waters 2998 PDA Detector (software-Empower 3, Waters, Milford, MA, USA) was used. […] Each peptide sample was analyzed in triplicate. […]
Where a SMILES comes first, the peptide text is derived from it. Bridges are numbered along the chain shown (N, C = ends). The star is where a group is joined. Palmitoyl = CCCCCCCCCCCCCCCC(=O)*

Below are worked cases with known answers.
CCCCCCCCCCCCCCCC(=O)N[C@H]1CSSC[C@@H](C(N)=O)NC(=O)[C@H](CCCNC(=N)N)NC(=O)[C@H](CCCCN)NC(=O)[C@H](CCCCN)NC(=O)[C@H](CCCCN)NC1=O [C6, C16-CKKKRC-NH2] (Palmitoyl-CKKKRC-NH2; disulfide 1-6)    +1.43 min
CCCCCCCCCCCCCCCC(=O)N[C@H]1CSSC[C@@H](C(N)=O)NC(=O)[C@H](CCCCN)NC(=O)[C@H](CCCCN)NC(=O)[C@H](CCCNC(=N)N)NC(=O)[C@H](CCCCN)NC1=O [C4, C16-CKRKKC-NH2] (Palmitoyl-CKRKKC-NH2; disulfide 1-6)    +0.92 min

Consider the record given below.
What value of measured ∆tR is listed for CCCCCCCCCCCCCCCC(=O)N[C@H]1CSSC[C@@H](C(N)=O)NC(=O)[C@H](CCCCN)NC(=O)[C@H](CCCCN)NC(=O)[C@H](CCCCN)NC1=O [C1, C16-CKKKC-NH2] (Palmitoyl-CKKKC-NH2; disulfide 1-5) ? +1.91 min

* * *

# Test system: Escherichia coli ATCC 25922
# Assay type: cell-based
# Recorded conditions: ATCC 25922, 24 h
Where a SMILES comes first, the peptide text is derived from it. Bridges are numbered along the chain shown (N, C = ends). The star is where a group is joined. Palmitoyl = CCCCCCCCCCCCCCCC(=O)*
Measured metric: MBEC E. coli

Worked examples follow.
CCCCCCCCCCCCCCCC(=O)N[C@H]1CSSC[C@@H](C(N)=O)NC(=O)[C@H](CCCCN)NC(=O)[C@H](CCCCN)NC(=O)[C@H](CCCNC(=N)N)NC(=O)[C@H](CCCNC(=N)N)NC1=O [C7, C16-CRRKKC-NH2] (Palmitoyl-CRRKKC-NH2; disulfide 1-6)    256 µg/mL
CCCCCCCCCCCCCCCC(=O)N[C@H]1CSSC[C@@H](C(N)=O)NC(=O)[C@H](CCCCN)NC(=O)[C@H](CCCCN)NC(=O)[C@H](CCCNC(=N)N)NC(=O)[C@H](CCCCN)NC1=O [C4, C16-CKRKKC-NH2] (Palmitoyl-CKRKKC-NH2; disulfide 1-6)    64 µg/mL
CCCCCCCCCCCCCCCC(=O)N[C@H]1CSSC[C@@H](C(N)=O)NC(=O)[C@H](CCCCN)NC(=O)[C@H](CCCNC(=N)N)NC(=O)[C@H](CCCCN)NC(=O)[C@H](CCCCN)NC1=O [C5, C16-CKKRKC-NH2] (Palmitoyl-CKKRKC-NH2; disulfide 1-6)    128 µg/mL

In the following, a different molecule is considered.
// MBEC E. coli lookup, key: CCCCCCCCCCCCCCCC(=O)N[C@@H](CCCNC(=N)N)C(=O)N[C@@H](CCCNC(=N)N)C(=O)N[C@@H](CCCCN)C(=O)N[C@@H](CCCCN)C(N)=O [L7, C16-RRKK-NH2] (Palmitoyl-RRKK-NH2) 256 µg/mL
